Read-out: Macrophage colony-stimulating factor (MCSF), CSF1 (gene 1435)
EXPERIMENT DESCRIPTION: BSK_CASM3C_MCSF: BioMAP Diversity Plus: CASM3C Assay for Macrophage colony-stimulating factor (MCSF) Biomarker Activity (AID 2283044);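 note: M-CSF protein amount quantified by ELISA after 24 h exposure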
CONDITION DESCRIPTION: primary human coronary artery smooth muscle cells; actives raise or lower the signal
Active and inactive are the calls of the source. Rule for the calls: active = hit-call score of the fitted dose curve at least 0.9, where 1 is the maximum; inactive = score below 0.9.
// classify into t (active), f (inactive)

Answer briefly: the call reported for CCOP(=S)(OCC)Oc1cc(C)nc(C(C)C)n1 in this assay.
f

Answer briefly: the call reported for CCOP(=O)(NC(C)C)Oc1ccc(SC)c(C)c1 (stereo not drawn) in this assay.
f

Answer briefly: the call reported for O=c1ccc(=O)[nH][nH]1 in this assay.
f

Answer briefly: the call reported for C[N+]1(C)CCCCC1 in this assay.
f

Answer briefly: the call reported for CCCSP(=O)(OCC)Oc1ccc(Br)cc1Cl (stereo not drawn) in this assay.
f

Answer briefly: the call reported for CCOP(=S)(OCC)Oc1ccc([N+](=O)[O-])cc1 in this assay.
f

----------
Read-out: CFLAR gene, CFLAR (gene 8837)
EXPERIMENT DESCRIPTION: LTEA_HepaRG_CFLAR: Life Technologies and Expression Analysis (LTEA) Assay for CFLAR gene using HepaRG (AID 2283455)
CONDITION DESCRIPTION: mRNA level, 48 h; actives raise or lower the signal
The source made the active and inactive calls. Rule for the calls: active = hit-call score of the fitted dose curve at least 0.9, where 1 is the maximum; inactive = score below 0.9.
// classify into 1.0 for active, 0.0 for inactive

Answer briefly: the call reported for CN1COCN(Cc2cnc(Cl)s2)C1=N[N+](=O)[O-] in this assay.
0.0

Answer briefly: the call reported for CCOP(=O)(OCC)Oc1cc(C)nc(C(C)C)n1 in this assay.
0.0

Answer briefly: the call reported for COc1ccc(C(=CC(=O)N2CCOCC2)c2ccc(Cl)cc2)cc1OC in this assay.
0.0

Answer briefly: the call reported for CC(C1CC1)C(O)(Cn1cncn1)c1ccc(Cl)cc1 (centres undefined) in this assay.
0.0

Answer briefly: the call reported for CCOP(=S)(OCC)OC(Cl)C(Cl)(Cl)Cl (centres undefined) in this assay.
0.0

Answer briefly: the call reported for CCCSP(=O)(OCC)Oc1ccc(Br)cc1Cl (centres undefined) in this assay.
0.0

Answer briefly: the call reported for C#CCC1=C(C)C(OC(=O)C2C(C=C(C)C)C2(C)C)CC1=O (centres undefined) in this assay.
0.0

----------
EXPERIMENT DESCRIPTION: CEETOX_H295R_ANDR: CeeTox H295R High-throughput Steroidogenesis Assay for Androstenedione (ANDR) (AID 2283436);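 note: human H295R adrenal cells exposed for 48 h with androstenedione measured in medium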
CONDITION DESCRIPTION: actives raise or lower the signal
The source made the active and inactive calls. How the source made its calls: active means hit-call score of the fitted dose curve at least 0.9, where 1 is the maximum; inactive means score below 0.9.
// classify into TRUE (active), FALSE (inactive)

CCOC(=O)COc1cc(-c2nn(C)c(OC(F)F)c2Cl)c(F)cc1Cl ... FALSE
CCOP(=O)(NC(C)C)Oc1ccc(SC)c(C)c1 (stereo not given) ... TRUE
CCCSP(=O)(OCC)SCCC ... FALSE
COc1ccc(C(=CC(=O)N2CCOCC2)c2ccc(Cl)cc2)cc1OC ... FALSE

Could you now look at the following compound, please?
Answer briefly: the call reported for CCC(=O)Nc1ccc(Cl)c(Cl)c1 in this assay.
TRUE

----------
EXPERIMENT DESCRIPTION: CCTE_Simmons_MITO_max_resp_rate: CCTE's HepG2 Seahorse XF Respirometric Screening Assay at Maximal Respiratory State [uncoupled], Simmons Lab (AID 2284002)
CONDITION DESCRIPTION: actives raise or lower the signal
The source made the active and inactive calls. Rule for the calls: active = hit-call score of the fitted dose curve at least 0.9, where 1 is the maximum; inactive = score below 0.9.
// classify into active, inactive

CON=C(C(=O)OC)c1ccccc1CON=C(C)c1cccc(C(F)(F)F)c1 ... active
CC(COc1ccc(Oc2ccccc2)cc1)Oc1ccccn1 (configuration not stated) ... inactive
CCC(=O)Nc1ccc(Cl)c(Cl)c1 ... active

Answer briefly: the call reported for CN(C)[C@@H]1C(=O)C(C(N)=O)=C(O)[C@@]2(O)C(=O)C3=C(O)c4c(O)cccc4[C@@](C)(O)[C@H]3[C@H](O)[C@@H]12 in this assay.
inactive

Answer briefly: the call reported for FC(F)C(F)(F)OCC(Cn1cncn1)c1ccc(Cl)cc1Cl (configuration not stated) in this assay.
active

Answer briefly: the call reported for C#CCC1=C(C)C(OC(=O)C2C(C=C(C)C)C2(C)C)CC1=O (configuration not stated) in this assay.
active

Answer briefly: the call reported for CCCSP(=O)(OCC)SCCC in this assay.
active

----------
EXPERIMENT DESCRIPTION: CCTE_Simmons_MITO_inhib_resp_rate: CCTE's HepG2 Seahorse XF Respirometric Screening Assay at Inhibited Respiratory State [full ETC block], Simmons Lab (AID 2284006)
CONDITION DESCRIPTION: actives raise or lower the signal
Active and inactive are the calls of the source. How the source made its calls: active means hit-call score of the fitted dose curve at least 0.9, where 1 is the maximum; inactive means score below 0.9.
// classify into active, inactive

Worked cases, answers included:
CCc1cccc(C)c1N(C(=O)CCl)C(C)COC (stereo not drawn) ... inactive
CCCSP(=O)(OCC)SCCC ... inactive
C[Si](Cn1cncn1)(c1ccc(F)cc1)c1ccc(F)cc1 ... inactive
CC(C)=CC1C(C(=O)OCN2C(=O)C3=C(CCCC3)C2=O)C1(C)C (stereo not drawn) ... inactive
CON=C(C(=O)OC)c1ccccc1CON=C(C)c1cccc(C(F)(F)F)c1 ... active
CC(C1CC1)C(O)(Cn1cncn1)c1ccc(Cl)cc1 (stereo not drawn) ... inactive
CCOP(=S)(OCC)SCCSCC ... inactive
FC(F)C(F)(F)OCC(Cn1cncn1)c1ccc(Cl)cc1Cl (stereo not drawn) ... inactive
C#CCC1=C(C)C(OC(=O)C2C(C=C(C)C)C2(C)C)CC1=O (stereo not drawn) ... inactive
CCCCOC(=O)[C@@H](C)Oc1ccc(Oc2ccc(C#N)cc2F)cc1 ... inactive

Answer briefly: the call reported for N#CSCSC#N in this assay.
inactive

Answer briefly: the call reported for CN(C)[C@@H]1C(=O)C(C(N)=O)=C(O)[C@@]2(O)C(=O)C3=C(O)c4c(O)cccc4[C@@](C)(O)[C@H]3[C@H](O)[C@@H]12 in this assay.
inactive

Answer briefly: the call reported for CCc1cccc(CC)c1N(COC)C(=O)CCl in this assay.
inactive

----------
EXPERIMENT DESCRIPTION: CCTE_Mundy_HCI_Cortical_Synap_Neur_Matur_SynapseCount: CCTE's Synaptogenesis and Neurite Maturation Assay in rat cortical cells for Synapse Count, Mundy Lab (AID 2284218)
Calls of active or inactive are those of the source. The calls were made as follows: active = hit-call score of the fitted dose curve at least 0.9, where 1 is the maximum; inactive = score below 0.9.
// classify into active, inactive

CC(=NC#N)N(C)Cc1ccc(Cl)nc1 ... inactive
CCOP(=S)(OCC)Oc1ccc([N+](=O)[O-])cc1 ... active
CN1COCN(Cc2cnc(Cl)s2)C1=N[N+](=O)[O-] ... inactive
COP(=O)(NC(C)=O)SC (centres undefined) ... inactive

Answer briefly: the call reported for CON=C(C(=O)OC)c1ccccc1CON=C(C)c1cccc(C(F)(F)F)c1 in this assay.
active

Answer briefly: the call reported for CN(C)[C@@H]1C(=O)C(C(N)=O)=C(O)[C@@]2(O)C(=O)C3=C(O)c4c(O)cccc4[C@@](C)(O)[C@H]3[C@H](O)[C@@H]12 in this assay.
active

Answer briefly: the call reported for CCOP(=S)(OCC)Oc1cc(C)nc(C(C)C)n1 in this assay.
inactive

Answer briefly: the call reported for CCOP(=S)(OCC)SCCSCC in this assay.
inactive

Answer briefly: the call reported for CC(C)N(C(=O)SCC(Cl)=C(Cl)Cl)C(C)C in this assay.
active

Answer briefly: the call reported for CCOC(=O)CC(SP(=O)(OC)OC)C(=O)OCC (centres undefined) in this assay.
inactive

Answer briefly: the call reported for C[N+]1(C)CCCCC1 in this assay.
inactive

Answer briefly: the call reported for O=[N+]([O-])c1cc(C(F)(F)F)c(Cl)c([N+](=O)[O-])c1Nc1ncc(C(F)(F)F)cc1Cl in this assay.
active

Answer briefly: the call reported for COP(=O)(OC)C(O)C(Cl)(Cl)Cl (centres undefined) in this assay.
active

Answer briefly: the call reported for S=C1NCCN1 in this assay.
inactive

----------
EXPERIMENT DESCRIPTION: CCTE_Shafer_MEA_acute_cross_correlation_area: CCTE's Neural Acute Assay for Area of Cross Correlation, Shafer Lab (AID 2284024);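 note: area under pooled inter-electrode spike cross-correlation near zero lag as percent change from own baseline; curves fitted for loss of cross-correlation area so actives lower synchrony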
Active and inactive are the calls of the source. How the source made its calls: active means hit-call score of the fitted dose curve at least 0.9, where 1 is the maximum; inactive means score below 0.9.
// classify into yes for active, no for inactive

Worked cases, answers included:
CCCOCC(=Nc1ccc(Cl)cc1C(F)(F)F)n1ccnc1 ... yes
C#CCC1=C(C)C(OC(=O)C2C(C=C(C)C)C2(C)C)CC1=O (configuration not stated) ... no
CN(C)[C@@H]1C(=O)C(C(N)=O)=C(O)[C@@]2(O)C(=O)C3=C(O)c4c(O)cccc4[C@@](C)(O)[C@H]3[C@H](O)[C@@H]12 ... no

Answer briefly: the call reported for C=C(C)[C@H]1Cc2c(ccc3c2O[C@@H]2COc4cc(OC)c(OC)cc4[C@@H]2C3=O)O1 in this assay.
no

Answer briefly: the call reported for CC1=NNC(=O)N(/N=C/c2cccnc2)C1 in this assay.
no

Answer briefly: the call reported for CC(C)=CC1C(C(=O)OCN2C(=O)C3=C(CCCC3)C2=O)C1(C)C (configuration not stated) in this assay.
no
